Biological target: GST-Co-NF-kB (Capsaspora owczarzaki, UniProt F1ARL5 200-546)
Sequence: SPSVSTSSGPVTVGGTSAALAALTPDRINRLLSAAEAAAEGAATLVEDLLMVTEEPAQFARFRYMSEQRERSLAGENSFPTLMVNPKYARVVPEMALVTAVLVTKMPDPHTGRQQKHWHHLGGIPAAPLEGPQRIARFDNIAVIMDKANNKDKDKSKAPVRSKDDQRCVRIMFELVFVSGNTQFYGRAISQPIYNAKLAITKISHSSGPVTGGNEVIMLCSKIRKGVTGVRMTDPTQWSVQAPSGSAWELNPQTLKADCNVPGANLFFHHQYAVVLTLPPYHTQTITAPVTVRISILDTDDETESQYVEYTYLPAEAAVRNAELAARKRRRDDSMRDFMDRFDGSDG
Test: protein-binding microarray (PBM); PBM: ~300 nM protein, 6 mM HEPES pH 7.8, 80 mM KCl, 0.5 mM EDTA, 0.5 mM EGTA, 6% glycerol, 35 ng/ul poly-dIdC, 1% milk, 1 h, room temperature; Ap Aiptasia and Nv Nematostella (sea anemones) / Co Capsaspora / Aq Amphimedon (sponge) / Dm Drosophila / Hu human; RHD is the Rel homology domain; high values mean tight binding
Details: dsDNA, one strand shown
measured_metric: binding signal (z-score)
One number for each entry, in z-score.

>  <biopolymer_sequence>
CCGATTAACATCAGGGAAATACATGATGTTAATCGGGTCTTGATTCGCTTGACGCTGCTG

>  <assayed_target>
GST-Co-NF-kB (Capsaspora owczarzaki, UniProt F1ARL5 200-546)

>  <units>
z-score

>  <binding signal>
4.08

$$$$
>  <biopolymer_sequence>
CCGATTAACATCAAGGGAATTTCTGATGTTAATCGGGTCTTGATTCGCTTGACGCTGCTG

>  <assayed_target>
GST-Co-NF-kB (Capsaspora owczarzaki, UniProt F1ARL5 200-546)

>  <units>
z-score

>  <binding signal>
4.25

$$$$
>  <biopolymer_sequence>
CCGATTAACATCACGGACACCCCTGATGTTAATCGGGTCTTGATTCGCTTGACGCTGCTG

>  <assayed_target>
GST-Co-NF-kB (Capsaspora owczarzaki, UniProt F1ARL5 200-546)

>  <units>
z-score

>  <binding signal>
1.34

$$$$
>  <biopolymer_sequence>
CCGATTAACATCAGGGAAAATACTGATGTTAATCGGGTCTTGATTCGCTTGACGCTGCTG

>  <assayed_target>
GST-Co-NF-kB (Capsaspora owczarzaki, UniProt F1ARL5 200-546)

>  <units>
z-score

>  <binding signal>
4.49

$$$$
>  <biopolymer_sequence>
CCGATTAACATCAATTTTCCCCGTGATGTTAATCGGGTCTTGATTCGCTTGACGCTGCTG

>  <assayed_target>
GST-Co-NF-kB (Capsaspora owczarzaki, UniProt F1ARL5 200-546)

>  <units>
z-score

>  <binding signal>
11

$$$$

For the 8 sequences below, give their binding signal values.
1. CCGATTAACATCACTATATTCCCTGATGTTAATCGGGTCTTGATTCGCTTGACGCTGCTG
2. CCGATTAACATCAAAAACTACCCTGATGTTAATCGGGTCTTGATTCGCTTGACGCTGCTG
3. CCGATTAACATCAGCCCCCCCCATGATGTTAATCGGGTCTTGATTCGCTTGACGCTGCTG
4. CCGATTAACATCAGGGGAACGCATGATGTTAATCGGGTCTTGATTCGCTTGACGCTGCTG
5. CCGATTAACATCAAATGGGAATTTGATGTTAATCGGGTCTTGATTCGCTTGACGCTGCTG
6. CCGATTAACATCAGGAATACCCCTGATGTTAATCGGGTCTTGATTCGCTTGACGCTGCTG
7. CCGATTAACATCACGAAACCCCCTGATGTTAATCGGGTCTTGATTCGCTTGACGCTGCTG
8. CCGATTAACATCAAGACTTCCCCTGATGTTAATCGGGTCTTGATTCGCTTGACGCTGCTG

A.
1. 3.19
2. 3.13
3. 5.27
4. 4.99
5. 1.12
6. 4.14
7. 2.69
8. 5.12

For the 6 sequences below, give their binding signal values.
1. CCGATTAACATCAGGTCGGGAAATGATGTTAATCGGGTCTTGATTCGCTTGACGCTGCTG
2. CCGATTAACATCAATTCTCCCCCTGATGTTAATCGGGTCTTGATTCGCTTGACGCTGCTG
3. CCGATTAACATCAAAATTCCCTGTGATGTTAATCGGGTCTTGATTCGCTTGACGCTGCTG
4. CCGATTAACATCACAAGTTTCCCTGATGTTAATCGGGTCTTGATTCGCTTGACGCTGCTG
5. CCGATTAACATCAGGGTGTTTTATGATGTTAATCGGGTCTTGATTCGCTTGACGCTGCTG
6. CCGATTAACATCAGGGAATTTGATGATGTTAATCGGGTCTTGATTCGCTTGACGCTGCTG

A.
[3.1, 10.7, 4.2, 4.92, 1.55, 3.17]

For the 5 sequences below, give their binding signal values.
1. CCGATTAACATCAGGCAATCCCCTGATGTTAATCGGGTCTTGATTCGCTTGACGCTGCTG
2. CCGATTAACATCACGGGAAATTCTGATGTTAATCGGGTCTTGATTCGCTTGACGCTGCTG
3. CCGATTAACATCAGACATTCCCCTGATGTTAATCGGGTCTTGATTCGCTTGACGCTGCTG
4. CCGATTAACATCAGGGGAGTTAATGATGTTAATCGGGTCTTGATTCGCTTGACGCTGCTG
5. CCGATTAACATCAAAATAATCCCTGATGTTAATCGGGTCTTGATTCGCTTGACGCTGCTG

A.
1: 1.6; 2: 5.06; 3: 5.38; 4: 3.34; 5: 2.45
